# Target entity: IRAK4 (Homo sapiens, UniProt Q9NWZ3)
# Sequence (Q9NWZ3 whole entry): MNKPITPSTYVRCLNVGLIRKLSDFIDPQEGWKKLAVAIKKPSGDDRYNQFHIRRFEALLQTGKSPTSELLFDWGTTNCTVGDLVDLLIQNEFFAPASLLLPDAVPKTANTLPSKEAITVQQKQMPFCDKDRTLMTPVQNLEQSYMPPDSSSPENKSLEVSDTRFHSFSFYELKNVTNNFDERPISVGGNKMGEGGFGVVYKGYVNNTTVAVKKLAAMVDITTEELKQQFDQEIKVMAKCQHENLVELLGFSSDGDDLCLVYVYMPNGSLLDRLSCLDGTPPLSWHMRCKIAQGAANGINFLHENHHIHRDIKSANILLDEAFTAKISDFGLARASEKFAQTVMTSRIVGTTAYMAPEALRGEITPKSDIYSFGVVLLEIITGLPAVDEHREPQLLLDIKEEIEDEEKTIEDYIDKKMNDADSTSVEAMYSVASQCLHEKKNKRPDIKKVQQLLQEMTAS
# Method notes: biochemical
Readout: IC50 (nM)

* COc1ncccc1NC(=O)c1cn2cc([C@]34CC[C@](C)(C3)OC4)nc2nc1OC(C)C (single isomer, unassigned) | 0.4

I: CCOc1nc2nc(C34COC(C)(C3)C4)cn2cc1C(=O)Nc1cccnc1OC
II: CCC(C)Oc1nc2nc(C34COC(C)(C3)C4)cn2cc1C(=O)Nc1cnn2cc(C)cnc12 (single isomer, unassigned) [Example 643]
III: COc1cc2nc(C3CCOCC3)cn2cc1C(=O)Nc1ccc(F)cc1OC(C)C
IV: CC12CC(c3cn4cc(C(=O)Nc5cccn(C(F)F)c5=O)c(OC5COC5)cc4n3)(CO1)C2
V: C[C@@]12CC[C@@](c3cn4cc(C(=O)Nc5cccc(C(F)F)n5)nc(OC5CCC5)c4n3)(CO1)C2 (single isomer, unassigned)
Task: Exam item: list the entries in increasing order of IC50. Reply with the labels, ordered as the question asks.
Result: II, V, I, IV, III

A: CC(C)Oc1cc2nc(C34COC(C)(C3)C4)cn2cc1C(=O)Nc1cccc(C(F)(F)F)n1
B: CC(C)Oc1ncccc1NC(=O)c1cn2cc(C34CCC(C)(C3)OC4)nc2cc1OC1CCC1 (stereo not drawn)
Task: For the two items A and B , which reports the higher IC50 value? Write down the label attached to your selection.
Result: B
(B: 22.9 nM, A: 0.3 nM)

I: CCOc1cc2nc([C@@H]3C[C@@H]3F)cn2cc1C(=O)Nc1cccc(OC)n1
II: CC(C)Oc1cc2nc(C34COC(C)(C3)C4)c(F)n2cc1C(=O)Nc1cnn2cccnc12
III: CC(C)Oc1nc2nc(C34COC(CF)(C3)C4)cn2cc1C(=O)Nc1cnn2cccnc12
IV: CC(C)Oc1cc2nc(C34COC(C)(C3)C4)cn2cc1C(=O)Nc1cnn2ccc(Cl)nc12
V: CCOc1nc(C(=O)Nc2cccnc2OC)cn2cc([C@H]3CCOC3)nc12 (single isomer, unassigned)
Task: Reorder: IC50, max to min. The labels, placed in the requested order, form the answer.
Result: I, II, V, III, IV

1: CCOc1cc2nc([C@@H]3C[C@H]3F)cn2cc1C(=O)Nc1cccc(OC)n1 (single isomer, unassigned)
2: COCCn1ccc(NC(=O)c2cn3cc(C45COC(C)(C4)C5)nc3cc2OC(C)C)n1
Task: Quick check, higher IC50 between 1 and 2 ? Lab note: record the label of whichever item you select.
Result: 1

P: CCOc1cc(C(=O)Nc2cccc(OC)n2)cn2cc(C3CCCOC3)nc12 (stereo not drawn)
Q: CC(C)Oc1cc(C(=O)Nc2cccc(C(F)F)n2)cn2cc(C3CCCOC3)nc12 (stereo not drawn)
R: CC(C)Oc1cc2nc([C@@]34CC[C@@](C)(C3)OC4)cn2cc1C(=O)Nc1cccc(C(F)F)n1 (single isomer, unassigned)
S: CCOc1cc(C(=O)Nc2cccc(C(F)F)n2)cn2cc([C@H]3CCCOC3)nc12 (single isomer, unassigned)
Task: Sort the compounds on IC50; start with the lowest figure. Reply with the item labels sorted in the order that was asked for.
Result: R, Q, S, P
(R: 0.1 nM, Q: 5.7 nM, S: 13.5 nM, P: 35.2 nM)

1: Cc1cnc2c(NC(=O)c3cn4cc(C56COC(C)(C5)C6)nc4cc3OC3CCCC3)cnn2c1
2: CC12CC(c3cn4cc(C(=O)Nc5cccc(C(F)F)n5)nc(OCC(F)F)c4n3)(CO1)C2
3: CC1(C)CC(Oc2cc3nc(C4CC4)cn3cc2C(=O)Nc2cccc(C(F)F)n2)C1
Task: Let's sort these by IC50, smallest first. Go ahead? Please reply with the labels ordered as requested. Many thanks.
Result: 1, 2, 3
(1: 0.2 nM, 2: 3.4 nM, 3: 6.4 nM)

A: CC(C)Oc1nc2nc(C34COC(C)(C3)C4)cn2cc1C(=O)Nc1cccc(F)c1Cl
B: CC(C)Oc1nc2nc(C34COC(C)(C3)C4)cn2cc1C(=O)Nc1cnn2cc(C3CC3)cnc12
C: CC(C)Oc1nc2nc(C34CCOC(C)(C3)C4)cn2cc1C(=O)Nc1cccc(C(F)(F)F)n1
Task: Endpoint returns the given compounds ordered by ascending IC50. I'd appreciate it if you listed the labels in the requested order.
Result: C, A, B
(C: 0.3 nM, A: 3 nM, B: 6.7 nM)

a: CC12CC(c3cn4cc(C(=O)Nc5cnn6cccnc56)c(OC5CCC5)nc4n3)(CO1)C2
b: CC(C)Oc1cc2nc([C@@]34CC[C@@](C)(C3)OC4)cn2cc1C(=O)Nc1cc(F)n(C)n1 (single isomer, unassigned)
c: Cn1ccc(NC(=O)c2cn3cc(C45COC(C)(C4)C5)nc3c(OC3CCC3)n2)n1
Task: Give the ascending ranking of the items by reported IC50. Your answer should be the labels, listed in the requested order.
Result: a, b, c

A: COc1cc2nc(C3CCOCC3)cn2cc1C(=O)Nc1cccc(C)n1
B: COc1cc2nc(C3CCOCC3)cn2cc1C(=O)Nc1cccc(F)c1F
Task: Higher IC50: A or B ? Bench note: the answer is the label of the chosen record.
Result: B

Hey, just so you know, these numbers are from patent US20230087118A1.
